Value source: patent US5686486A

Exercise: state measured inhibition at 0.37 µM for each of the molecules provided.
experimental system: HIV-1 protease (Human immunodeficiency virus type 1 group M subtype B, UniProt P04585)
assay summary: biochemical
experimental setup: read-out: HIV-1 Protease % Inhib, dose 0.370 uM
Provide the reading as a plain figure in %.

Name the recorded inhibition at 0.37 µM of the molecule listed here: O=c1oc2c(c(O)c1C(c1cccc(NS(=O)(=O)c3cccc4ccccc34)c1)C1CC1)CCCCCC2 (stereo not drawn) [Example 270] 93.1

Name the recorded inhibition at 0.37 µM of the molecule listed here: CCCC1CCCCCc2c1oc(=O)c(C(c1ccccc1)C1CC1)c2O (stereo not drawn) [Example 128] 85.6

Name the recorded inhibition at 0.37 µM of the molecule listed here: CC(C)CC(c1cccc(NS(=O)(=O)c2ccc(F)cc2)c1)c1c(O)c2c(oc1=O)CCCCCC2 (stereo not drawn) [Example 425] 109

Name the recorded inhibition at 0.37 µM of the molecule listed here: CCCC1CCCCCc2c1oc(=O)c([C@@H](c1ccccc1)C1CC1)c2O (mixture of isomers) [Example 232] 51.2

Name the recorded inhibition at 0.37 µM of the molecule listed here: O=c1oc2c(c(O)c1C(c1ccccc1)C1CC1)CCCCCC2CC1CCCOC1 (stereo not drawn) [Example 179] 38.6

Name the recorded inhibition at 0.37 µM of the molecule listed here: CCCC(c1cccc(NS(=O)(=O)c2ccc(C#N)cc2)c1)c1c(O)c2c(oc1=O)CCCCCC2 (single isomer, unassigned) [Example 437] 87.1

Name the recorded inhibition at 0.37 µM of the molecule listed here: O=c1oc2c(c(O)c1C(c1cccc(NS(=O)(=O)c3ccc(N=Nc4ccccc4)cc3)c1)C1CC1)CCCCCC2 (stereo not drawn) [Example 308] 70.4

Name the recorded inhibition at 0.37 µM of the molecule listed here: CC(C)(C)OC(=O)NCCC(=O)Nc1cccc(C(c2c(O)c3c(oc2=O)CCCCCC3)C2CC2)c1 (stereo not drawn) [Example 196] 81.2

Name the recorded inhibition at 0.37 µM of the molecule listed here: CCS(=O)(=O)Nc1cccc(C(c2c(O)c3c(oc2=O)CCCCCC3)C2CC2)c1 (stereo not drawn) [Example 318] 45.1

Name the recorded inhibition at 0.37 µM of the molecule listed here: O=c1oc2c(c(O)c1C(c1ccccc1)C1CC1)CCCCCC2CC1CCCCO1 (stereo not drawn) [Example 130] 14.7

Name the recorded inhibition at 0.37 µM of the molecule listed here: Cc1nn(C)c(Cl)c1S(=O)(=O)Nc1cccc(C(c2c(O)c3c(oc2=O)CCCCCC3)C2CC2)c1 (stereo not drawn) [Example 294] 20.9

Name the recorded inhibition at 0.37 µM of the molecule listed here: O=C(NCc1ccc(S(=O)(=O)Nc2cccc(C(c3c(O)c4c(oc3=O)CCCCCC4)C3CC3)c2)s1)c1ccccc1 (stereo not drawn) [Example 296] 74.8

Name the recorded inhibition at 0.37 µM of the molecule listed here: CC(C)CC(c1cccc(NS(=O)(=O)c2cccc3cccnc23)c1)c1c(O)c2c(oc1=O)CCCCCC2 (stereo not drawn) [Example 428] 84

Name the recorded inhibition at 0.37 µM of the molecule listed here: O=c1oc2c(c(O)c1C(c1ccccc1)C1CC1)CCCCC2C(O)C1CC1 (stereo not drawn) [Example 195] 23.5

Name the recorded inhibition at 0.37 µM of the molecule listed here: CC1(C)C2CCC1(CS(=O)(=O)Nc1cccc(C(c3c(O)c4c(oc3=O)CCCCCC4)C3CC3)c1)C(=O)C2 (stereo not drawn) [Example 333] 28.3
